Test system: RXRa homodimer (NR concentration 180 nM)
Experiment: PBM binding z-score (relative to random genomic background probes); higher = stronger binding; sequences stand for … in GC…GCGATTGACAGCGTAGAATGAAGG
Outcome: fulfilled for PBM binding z-score of at least 1; not fulfilled for anything lower.

Residue String	Class Label
GATACAAGGTCAAGGCCAGAGTACGCGTATTGAT	fulfilled
CCGACCGGGGCAAAGGTTACCATACTCAGTACGA	fulfilled
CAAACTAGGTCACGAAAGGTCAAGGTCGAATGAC	fulfilled
CCTCGGAGGACAGAAGGGCAGAGCTGTCCGCTTT	not fulfilled
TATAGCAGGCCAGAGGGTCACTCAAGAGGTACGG	fulfilled
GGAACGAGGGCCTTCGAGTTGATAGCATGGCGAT	not fulfilled
CGTCCAAGGTCATAGGAGGTCAGTGAGGACAGAT	fulfilled
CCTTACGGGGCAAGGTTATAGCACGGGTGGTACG	fulfilled
CGAACTCGGTCATCCAGGACAGTGAATACATTGA	not fulfilled
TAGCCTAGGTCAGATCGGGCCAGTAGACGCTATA	fulfilled
ATCTCTAGGTAACCAAGGTCAGTGAATGCCGAAC	fulfilled
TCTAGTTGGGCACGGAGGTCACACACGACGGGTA	fulfilled

* * *

# PBM binding z-score per entry
Test system: THRa:RXRa (NR concentration 90 nM, RXRa partner concentration 90 nM)
Experiment: PBM binding z-score (relative to random genomic background probes); higher = stronger binding; sequences stand for … in GC…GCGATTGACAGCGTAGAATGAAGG

Residue String	PBM binding z-score
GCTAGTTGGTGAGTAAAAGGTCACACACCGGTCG	3.48
CCTTACGGGTCACTGTCAGGTTATAGCATTTGGA	3.83
AGTCAAAGTTCATCTAGGTAACTTAAGATATGCT	3.05
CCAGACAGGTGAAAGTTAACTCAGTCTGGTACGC	0.251
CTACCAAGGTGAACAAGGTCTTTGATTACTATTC	2.52
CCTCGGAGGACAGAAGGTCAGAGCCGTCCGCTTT	2.33
TCTGCTAGGTCAATGATGGTCAGCTAATCTGCTA	2.59
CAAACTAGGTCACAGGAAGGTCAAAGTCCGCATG	4.36
ATATGTAGGTTACATCCGGGTCGTTCAGGCTATG	2.53
TCTATTAGTTGAACGGCAACCGACGAGTCCGTTT	-0.127
ATCGCAAGGTCGACGAGGTGAGTATACACCGTTT	3.41
TCTCGGAGTACACGAAGGTCAGAGCTTTCCAGAG	1.58

* * *

Test system: PXR:RXRa (NR concentration 270 nM, RXRa partner concentration 90 nM)
Experiment: PBM binding z-score (relative to random genomic background probes); higher = stronger binding; sequences stand for … in GC…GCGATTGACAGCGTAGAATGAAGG

Residue String	Target Or System	PBM binding z-score
CGTCCAAGGTCCTAGGAGGTCAGTGAAGACAGAT	PXR:RXRa (NR concentration 270 nM, RXRa partner concentration 90 nM)	3.01
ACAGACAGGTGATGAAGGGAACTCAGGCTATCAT	PXR:RXRa (NR concentration 270 nM, RXRa partner concentration 90 nM)	-0.382
ACTAGCAGGTCAAGTTTGGGTCACTCAAACAAAG	PXR:RXRa (NR concentration 270 nM, RXRa partner concentration 90 nM)	4.22
CCGACTGGAGCAGAAAGGTTACCATACCATCCGG	PXR:RXRa (NR concentration 270 nM, RXRa partner concentration 90 nM)	1.02
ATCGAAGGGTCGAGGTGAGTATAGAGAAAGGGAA	PXR:RXRa (NR concentration 270 nM, RXRa partner concentration 90 nM)	1.26
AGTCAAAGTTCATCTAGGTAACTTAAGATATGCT	PXR:RXRa (NR concentration 270 nM, RXRa partner concentration 90 nM)	5.28
TTTCCAAGGTGAGCTGAGGTCGTTGATCCAACTC	PXR:RXRa (NR concentration 270 nM, RXRa partner concentration 90 nM)	4.97
TCTAGTTGGTCACGGAGGTCACCCACGACGGGTA	PXR:RXRa (NR concentration 270 nM, RXRa partner concentration 90 nM)	4.61
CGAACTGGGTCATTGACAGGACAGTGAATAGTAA	PXR:RXRa (NR concentration 270 nM, RXRa partner concentration 90 nM)	1.41
ATATGTAGGTTAGCTAGGGTCATTCAGACTAGGC	PXR:RXRa (NR concentration 270 nM, RXRa partner concentration 90 nM)	5.64
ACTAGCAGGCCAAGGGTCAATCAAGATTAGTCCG	PXR:RXRa (NR concentration 270 nM, RXRa partner concentration 90 nM)	3.34
GCTTACGAGTCAAAGGTTATAGCATGAATAGAAT	PXR:RXRa (NR concentration 270 nM, RXRa partner concentration 90 nM)	2.73
